# credit: patent US20150299801A1

molecular target: NT5C2 R291W (Homo sapiens, UniProt P49902, R291W); construct: His6 (N); test: 5'-nucleotidase activity as a function of ATP concentration, R291W; conditions: read-out: A0.5, ATP concentration to achieve an activity equal to half Vmax
Sequence (P49902 whole entry R291W): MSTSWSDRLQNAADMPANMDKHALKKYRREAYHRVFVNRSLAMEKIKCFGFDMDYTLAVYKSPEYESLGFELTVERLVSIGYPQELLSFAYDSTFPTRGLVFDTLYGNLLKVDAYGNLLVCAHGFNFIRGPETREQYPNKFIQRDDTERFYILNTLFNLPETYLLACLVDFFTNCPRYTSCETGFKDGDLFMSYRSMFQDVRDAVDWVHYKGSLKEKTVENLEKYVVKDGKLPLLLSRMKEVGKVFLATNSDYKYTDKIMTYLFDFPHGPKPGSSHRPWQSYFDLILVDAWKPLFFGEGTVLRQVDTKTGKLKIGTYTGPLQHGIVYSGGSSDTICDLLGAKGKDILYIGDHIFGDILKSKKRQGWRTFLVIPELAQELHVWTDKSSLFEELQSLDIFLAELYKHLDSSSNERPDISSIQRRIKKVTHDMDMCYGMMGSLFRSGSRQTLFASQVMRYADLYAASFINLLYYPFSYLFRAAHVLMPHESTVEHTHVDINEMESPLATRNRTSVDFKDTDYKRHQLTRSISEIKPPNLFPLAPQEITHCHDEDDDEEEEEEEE
measured.quantity: EC50

Form: compound = `Nc1ncnc2c1ncn2[C@@H]1O[C@H](COP(=O)(O)OP(=O)(O)OP(=O)(O)O)[C@@H](O)[C@H]1O` ; EC50 = ~4 mM

====

target: NT5C2 K359Q, R367Q, D407A, L375F, R238W; assay: 5'-nucleotidase activity as a function of ATP concentration, remaining mutations; details: remaining mutations; read-out: A0.5, ATP concentration to achieve an activity equal to half Vmax
pEC50: −log10 of the molar value.
measured.quantity: pEC50

Form: compound = Nc1ncnc2c1ncn2[C@@H]1O[C@H](COP(=O)(O)OP(=O)(O)OP(=O)(O)O)[C@@H](O)[C@H]1O [ATP] ; pEC50 = > 3.00
